Where do these numbers come from? They come from patent US6906098B2.

Form field: GI50 (one value per entry).
tested on: MALME-3M melanoma cancer cell line; test: NCI in vitro antiproliferative screen (SRB), MALME-3M; format: cell-based, human; settings: Homo sapiens; MALME-3M, after 48 h; read-out: GI50
RECORDED_METRIC: GI50 (nM)

{"COMPOUND": "CC(=O)O[C@H]1CC2C(C3CC[C@H](C(C)CCC(=O)O)[C@]31C)[C@H](OC(C)=O)C[C@@H]1CC3(CC[C@]21C)OOC1(CCC(c2ccccc2)CC1)OO3 (single isomer, unassigned) [Compound 1C44]", "RECORDED_METRIC": "GI50", "UNIT_ANNOTATION": "nM", "ASSAY_VALUE": 2270}
{"COMPOUND": "C[C@@H]1CC[C@H]2[C@@H](C)C(=O)O[C@@H]3O[C@@]4(C)CC[C@@H]1[C@]32OO4 [Artemisinin, reference compound]", "RECORDED_METRIC": "GI50", "UNIT_ANNOTATION": "nM", "ASSAY_VALUE": 100000}
{"COMPOUND": "CC(=O)O[C@H]1C(=O)[C@@]2(C)[C@H]([C@H](OC(=O)c3ccccc3)[C@]3(O)C[C@H](OC(=O)[C@H](O)[C@@H](NC(=O)c4ccccc4)c4ccccc4)C(C)=C1C3(C)C)[C@]1(OC(C)=O)CO[C@@H]1C[C@@H]2O [Paclitaxel, reference compound]", "RECORDED_METRIC": "GI50", "UNIT_ANNOTATION": "nM", "ASSAY_VALUE": 2510}
{"COMPOUND": "CC(=O)O[C@H]1CC2C(C3CC[C@H](C(C)CCC(N)=O)[C@]31C)[C@H](OC(C)=O)C[C@@H]1CC3(CC[C@]21C)OOC1(CCC(c2ccccc2)CC1)OO3 (single isomer, unassigned) [Compound 1C45]", "RECORDED_METRIC": "GI50", "UNIT_ANNOTATION": "nM", "ASSAY_VALUE": 20}
